# PROTOCOL_DETAILS: in vivo
# TEST_SETTINGS: female, brown, Fleckvieh and Holstein, cow, serum, po, 500 ng
READOUT_NAME: concentration at 9 day (ng/mL)
Give just the number in ng/mL; leave the unit off.

For the compound C=C1/C(=C\C=C2/CCC[C@]3(C)[C@@H]([C@H](C)CCCC(C)(C)O)CC[C@@H]23)C[C@@H](O)C[C@@H]1O [Group 3, 1,25-dihydroxyvitamin D3] , give its measured concentration at 9 day value.
0.023

###

# PROTOCOL_DETAILS: in vivo
# TEST_SETTINGS: female, brown, Fleckvieh and Holstein, cow, serum, po, 500 ng
# Description: Twenty-five cows of the races brown, Fleckvieh and Holstein of a weight of approximately 500-600 kg weight and including lactating and non-lactating subjects were allocated to 5 treatment groups as detailed in Table 6 blow. The animals were given a single dose of the test preparation orally per bolus. […] From the blood, serum was prepared and calcium (total), phosphate and 1,25-(OH)2 vitamin D3 was analyzed according to established clinico-chemical methods. […]
READOUT_NAME: concentration at 11 day (ng/mL)
Could you give me the number in ng/mL? Just the number is fine.

Give the measured concentration at 11 day for C=C1/C(=C\C=C2/CCC[C@]3(C)[C@@H]([C@H](C)CCCC(C)(C)O)CC[C@@H]23)C[C@@H](O)C[C@@H]1O [Group 3, 1,25-dihydroxyvitamin D3]
0.025

###

# PROTOCOL_DETAILS: in vivo
# TEST_SETTINGS: female, brown, Fleckvieh and Holstein, cow, serum, po, 500 ng
READOUT_NAME: concentration at 0 day

Assign concentration at 0 day to the following record: C=C1/C(=C\C=C2/CCC[C@]3(C)[C@@H]([C@H](C)CCCC(C)(C)O)CC[C@@H]23)C[C@@H](O)C[C@@H]1O [Group 3, 1,25-dihydroxyvitamin D3]
0.02 ng/mL

###

# PROTOCOL_DETAILS: in vivo
# TEST_SETTINGS: female, brown, Fleckvieh and Holstein, cow, serum, po, 500 ng
# Method: Twenty-five cows of the races brown, Fleckvieh and Holstein of a weight of approximately 500-600 kg weight and including lactating and non-lactating subjects were allocated to 5 treatment groups as detailed in Table 6 blow. The animals were given a single dose of the test preparation orally per bolus. […] From the blood, serum was prepared and calcium (total), phosphate and 1,25-(OH)2 vitamin D3 was analyzed according to established clinico-chemical methods. […]
READOUT_NAME: concentration at 4 day (ng/mL)
Quick reminder: number only, in ng/mL, skip the unit.

Give reported concentration at 4 day value for C=C1/C(=C\C=C2/CCC[C@]3(C)[C@@H]([C@H](C)CCCC(C)(C)O)CC[C@@H]23)C[C@@H](O)C[C@@H]1O [Group 3, 1,25-dihydroxyvitamin D3]
0.04

###

# PROTOCOL_DETAILS: in vivo
# TEST_SETTINGS: female, brown, Fleckvieh and Holstein, cow, serum, po, 500 ng
READOUT_NAME: concentration at 7 day (ng/mL)
Response body: numeric value in ng/mL, unit text excluded.

State its concentration at 7 day for this molecule: C=C1/C(=C\C=C2/CCC[C@]3(C)[C@@H]([C@H](C)CCCC(C)(C)O)CC[C@@H]23)C[C@@H](O)C[C@@H]1O [Group 3, 1,25-dihydroxyvitamin D3]
0.03

###

# PROTOCOL_DETAILS: in vivo
# TEST_SETTINGS: female, brown, Fleckvieh and Holstein, cow, serum, po, 500 ng
READOUT_NAME: concentration at 5 day
Write the quantity with the unit trailing the number.

Name the recorded concentration at 5 day of the item C=C1/C(=C\C=C2/CCC[C@]3(C)[C@@H]([C@H](C)CCCC(C)(C)O)CC[C@@H]23)C[C@@H](O)C[C@@H]1O [Group 3, 1,25-dihydroxyvitamin D3] in your answer.
0.046 ng/mL

###

# PROTOCOL_DETAILS: in vivo
# TEST_SETTINGS: female, brown, Fleckvieh and Holstein, cow, serum, po, 500 ng
READOUT_NAME: concentration at 1 day (ng/mL)
Value expressed in ng/mL; do not type the unit.

In one line, give reported concentration at 1 day of the entry C=C1/C(=C\C=C2/CCC[C@]3(C)[C@@H]([C@H](C)CCCC(C)(C)O)CC[C@@H]23)C[C@@H](O)C[C@@H]1O [Group 3, 1,25-dihydroxyvitamin D3] .
0.243
